Data provenance is paper doi:10.1101/2020.01.22.915298.

Biological target: diphtheria toxin receptor-binding fragment (lysosomal targeting moiety) (Corynebacterium diphtheriae, UniProt P00588 418-567)
Sequence (P00588 418-567): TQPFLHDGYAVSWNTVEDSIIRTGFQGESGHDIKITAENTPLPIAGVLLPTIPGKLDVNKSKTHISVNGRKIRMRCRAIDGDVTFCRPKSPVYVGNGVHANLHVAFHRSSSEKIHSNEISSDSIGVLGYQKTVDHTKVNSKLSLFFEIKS
Assay: SPR
recorded.metric: Kd (µM)
Express the result in µM but write the number alone.

Quick one: give measured Kd for Heparin-Binding EGF-like Growth Factor, recombinant (receptor, UniProt Q99075 63-148, looked up) DLQEADLDLLRVTLSSKPQALATPNKEEHGKRKKKGKGLGKKRDPCLRKYKDFCIHGECKYVKELRAPSCICHPGYHGERCHGLSL 0.0133
